Origin of measurements: PubChem BioAssay AID2060883

# Test system: 843782-103-R-J1-PDC complex spheroid viability
# MEASUREMENT_NOTES: Anticancer human tumor 843782-103-R-J1-PDC patient-derived lung adenocarcinoma cell line growth inhibition [RAS]
# EXPERIMENTAL_SETUP: second compound 0.01 µM; first compound 10 µM; stronger effect = lower value
Form field: viability, T/C (one value per entry).

# count of solved cases: 2
INSERT INTO measurements (compound, attribute_measured, result) VALUES
  ('Cc1nc(N2CCC3(CC2)COC(C)C3N)c(CO)nc1Sc1ccnc(N)c1Cl (stereo not drawn) + C=CC(=O)N1CCN(c2nc(OCC3CCCN3C)nc3c(F)c(-c4nc(N)cc(C)c4C(F)(F)F)c(Cl)cc23)C(C)C1', 'viability, T/C', '22.6%'),
  ('CC(Nc1ccc2c(c1)OCCn1cc(N3C(=O)OCC3C(F)F)nc1-2)C(N)=O (stereo not drawn) + C=CC(=O)N1CCN(c2nc(OCC3CCCN3C)nc3c(F)c(-c4nc(N)cc(C)c4C(F)(F)F)c(Cl)cc23)C(C)C1', 'viability, T/C', '10.9%');

Now let's try a different one.
May I ask what viability, T/C has been recorded for C[C@@H](NC(=O)c1ncnc(N)c1Cl)c1ncc(C(=O)Nc2cc(C(F)(F)F)c(Cl)cn2)s1 + C=CC(=O)N1CCN(c2nc(OCC3CCCN3C)nc3c(F)c(-c4nc(N)cc(C)c4C(F)(F)F)c(Cl)cc23)C(C)C1 ? 91.8%

----------
# System: 843782-103-R-J1-PDC complex spheroid viability
# MEASUREMENT_NOTES: Anticancer human tumor 843782-103-R-J1-PDC cell line growth inhibition [RAS];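 note: viability read after seven days of compound exposure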
# EXPERIMENTAL_SETUP: second compound 0.0316 µM; first compound 0.00316 µM; stronger effect = lower value
Form field: viability, T/C (one value per entry).
Write the number in % without appending the unit.

INSERT INTO assay_data (compound, unit, numeric_readout) VALUES
  ('O=C(c1ccc(F)c(F)c1Nc1ccc(I)cc1F)N1CC(O)([C@@H]2CCCCN2)C1 + C=CC(=O)N1CCN(c2nc(OCC3CCCN3C)nc3c(F)c(-c4nc(N)cc(C)c4C(F)(F)F)c(Cl)cc23)C(C)C1', '%', 83.4),
  ('O=C(c1ccc(F)c(F)c1Nc1ccc(I)cc1F)N1CC(O)([C@@H]2CCCCN2)C1 + C#Cc1c(F)ccc2cc(O)cc(-c3ncc4c(N5CC6CCC(C5)N6)nc(OCC56CCCN5CC(F)C6)nc4c3F)c12', '%', 107);

Now let's try a different one.
Enter reported viability, T/C observed with 843782-103-R-J1-PDC complex spheroid viability for Nc1ccn(C2OC(CO)C(O)C2(F)F)c(=O)n1 (stereo not drawn) + C#Cc1c(F)ccc2cc(O)cc(-c3ncc4c(N5CC6CCC(C5)N6)nc(OCC56CCCN5CC(F)C6)nc4c3F)c12 101

----------
# System: 843782-103-R-J1-PDC complex spheroid viability
# MEASUREMENT_NOTES: Anticancer human tumor 843782-103-R-J1-PDC cell line growth inhibition [RAS];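 note: viability read after seven days of compound exposure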
# EXPERIMENTAL_SETUP: second compound 0.003 µM; first compound 1 µM; stronger effect = lower value
ATTRIBUTE_MEASURED: viability, T/C

INSERT INTO assay_data (compound, result) VALUES
  ('CC(C)NCC(C(=O)N1CCN(c2ncnc3c2C(C)CC3O)CC1)c1ccc(Cl)cc1 (configuration not stated) + CCn1c(-c2cc(N3CCN(C)CC3)cnc2C(C)OC)c2c3cc(ccc31)-c1csc(n1)CC(NC(=O)C1CC1C)C(=O)N1CCCC(N1)C(=O)OCC(C)(C)C2', '25.8%');

Now let's try a different one.
May I ask what viability, T/C has been recorded for O=C(c1ccc(F)c(F)c1Nc1ccc(I)cc1F)N1CC(O)([C@@H]2CCCCN2)C1 + CCn1c(-c2cccnc2C(C)OC)c2c3cc(ccc31)N1CCOC(CC(NC(=O)C(C(C)C)N(C)C(=O)C3(F)CCN(C(=O)C#CC(C)(C)N(C)C)CC3)C(=O)N3CCCC(N3)C(=O)OCC(C)(C)C2)C1 ? 9.69%

----------
# Tested on: 843782-103-R-J1-PDC complex spheroid viability
# MEASUREMENT_NOTES: Anticancer human tumor 843782-103-R-J1-PDC cell line growth inhibition [RAS]; active = viability on the fitted dose curve at most 10% of control; inactive = the rest;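 note: viability read after seven days of compound exposure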
# EXPERIMENTAL_SETUP: second compound 0.03 µM; first compound 1 µM
// classify into true for active, false for inactive

INSERT INTO measurements (compound, label_value) VALUES
  ('NC1c2ccccc2OC12CCN(c1cnc3c(N4CCCc5ncccc54)n[nH]c3n1)CC2 (configuration not stated) + CCn1c(-c2cc(N3CCN(C)CC3)cnc2C(C)OC)c2c3cc(ccc31)-c1csc(n1)CC(NC(=O)C1CC1C)C(=O)N1CCCC(N1)C(=O)OCC(C)(C)C2', 'false');

Recorded test call requested for Nc1ccn(C2OC(CO)C(O)C2(F)F)c(=O)n1 (configuration not stated) + CCn1c(-c2cc(N3CCN(C)CC3)cnc2C(C)OC)c2c3cc(ccc31)-c1csc(n1)CC(NC(=O)C1CC1C)C(=O)N1CCCC(N1)C(=O)OCC(C)(C)C2 true

----------
Form field: pIC50 (one value per entry).
# Tested on: 843782-103-R-J1-PDC complex spheroid viability
# MEASUREMENT_NOTES: Anticancer human tumor 843782-103-R-J1-PDC cell line growth inhibition [RAS];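 note: viability read after seven days of compound exposure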
# EXPERIMENTAL_SETUP: curve of first compound; second compound 0.0316 µM
Please report pIC50 as the negative decimal logarithm of the molar concentration, giving only the number.

# count of solved cases: 2
INSERT INTO results (molecule, attribute_measured, numeric_readout) VALUES
  ('Nc1ccn(C2OC(CO)C(O)C2(F)F)c(=O)n1 (stereo not given) + C#Cc1c(F)ccc2cc(O)cc(-c3ncc4c(N5CC6CCC(C5)N6)nc(OCC56CCCN5CC(F)C6)nc4c3F)c12', 'pIC50', 7.53),
  ('CC1(O)CCCC1n1c(=O)c(C(F)F)cc2cnc(NC3CCN(S(C)(=O)=O)CC3)nc21 (stereo not given) + C=CC(=O)N1CCN(c2nc(OCC3CCCN3C)nc3c(F)c(-c4nc(N)cc(C)c4C(F)(F)F)c(Cl)cc23)C(C)C1', 'pIC50', 7.02);

May I ask what pIC50 has been recorded for CC(C)NCC(C(=O)N1CCN(c2ncnc3c2C(C)CC3O)CC1)c1ccc(Cl)cc1 (stereo not given) + C#Cc1c(F)ccc2cc(O)cc(-c3ncc4c(N5CC6CCC(C5)N6)nc(OCC56CCCN5CC(F)C6)nc4c3F)c12 ? 5.73

----------
# Tested on: 843782-103-R-J1-PDC complex spheroid viability
# MEASUREMENT_NOTES: Anticancer human tumor 843782-103-R-J1-PDC cell line growth inhibition [RAS]; active means viability on the fitted dose curve at most 10% of control; inactive means the rest;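 note: viability read after seven days of compound exposure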
# EXPERIMENTAL_SETUP: second compound 0.003 µM; first compound 1 µM
// classify into yes = active, no = inactive

Recorded test call requested for C=CC(=O)N1CCN(c2nc(OCC3CCCN3C)nc3c(F)c(-c4nc(N)cc(C)c4C(F)(F)F)c(Cl)cc23)C(C)C1 (centres undefined) + CCn1c(-c2cc(N3CCN(C)CC3)cnc2C(C)OC)c2c3cc(ccc31)-c1csc(n1)CC(NC(=O)C1CC1C)C(=O)N1CCCC(N1)C(=O)OCC(C)(C)C2 no

Recorded test call requested for Nc1ccn(C2OC(CO)C(O)C2(F)F)c(=O)n1 (centres undefined) + CCn1c(-c2cc(N3CCN(C)CC3)cnc2C(C)OC)c2c3cc(ccc31)-c1csc(n1)CC(NC(=O)C1CC1C)C(=O)N1CCCC(N1)C(=O)OCC(C)(C)C2 yes

Recorded test call requested for CC(=O)OC12COC1CC(O)C1(C)C(=O)C(O)C3=C(C)C(OC(=O)C(O)C(NC(=O)OC(C)(C)C)c4ccccc4)CC(O)(C(OC(=O)c4ccccc4)C21)C3(C)C (centres undefined) + CCn1c(-c2cccnc2C(C)OC)c2c3cc(ccc31)N1CCOC(CC(NC(=O)C(C(C)C)N(C)C(=O)C3(F)CCN(C(=O)C#CC(C)(C)N(C)C)CC3)C(=O)N3CCCC(N3)C(=O)OCC(C)(C)C2)C1 yes

Recorded test call requested for C[C@@H](NC(=O)c1ncnc(N)c1Cl)c1ncc(C(=O)Nc2cc(C(F)(F)F)c(Cl)cn2)s1 + CCn1c(-c2cc(N3CCN(C)CC3)cnc2C(C)OC)c2c3cc(ccc31)-c1csc(n1)CC(NC(=O)C1CC1C)C(=O)N1CCCC(N1)C(=O)OCC(C)(C)C2 no

----------
# System: 843782-103-R-J1-PDC complex spheroid viability
# MEASUREMENT_NOTES: Anticancer human tumor 843782-103-R-J1-PDC cell line growth inhibition [RAS];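 note: viability read after seven days of compound exposure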
# EXPERIMENTAL_SETUP: second compound 0.0949 µM; first compound 0.00316 µM; stronger effect = lower value
ATTRIBUTE_MEASURED: viability, T/C (%)
Write the number in % without appending the unit.

INSERT INTO measurements (molecule, attribute_measured, numeric_readout) VALUES
  ('C=CC(=O)Nc1cc(Nc2nccc(-c3cn(C)c4ccccc34)n2)c(OC)cc1N(C)CCN(C)C + CCn1c(-c2cc(N3CCN(C)CC3)cnc2C(C)OC)c2c3cc(ccc31)-c1csc(n1)CC(NC(=O)C1CC1C)C(=O)N1CCCC(N1)C(=O)OCC(C)(C)C2', 'viability, T/C', 17.8),
  ('Nc1ccn(C2OC(CO)C(O)C2(F)F)c(=O)n1 (centres undefined) + CCn1c(-c2cccnc2C(C)OC)c2c3cc(ccc31)N1CCOC(CC(NC(=O)C(C(C)C)N(C)C(=O)C3(F)CCN(C(=O)C#CC(C)(C)N(C)C)CC3)C(=O)N3CCCC(N3)C(=O)OCC(C)(C)C2)C1', 'viability, T/C', 85.6),
  ('CC(C)n1nc(-c2ccc3oc(N)nc3c2)c2c(N)ncnc21 + CCn1c(-c2cc(N3CCN(C)CC3)cnc2C(C)OC)c2c3cc(ccc31)-c1csc(n1)CC(NC(=O)C1CC1C)C(=O)N1CCCC(N1)C(=O)OCC(C)(C)C2', 'viability, T/C', 12.8);

Now let's try a different one.
May I ask what viability, T/C has been recorded for O=C(c1ccc(F)c(F)c1Nc1ccc(I)cc1F)N1CC(O)([C@@H]2CCCCN2)C1 + CCn1c(-c2cccnc2C(C)OC)c2c3cc(ccc31)N1CCOC(CC(NC(=O)C(C(C)C)N(C)C(=O)C3(F)CCN(C(=O)C#CC(C)(C)N(C)C)CC3)C(=O)N3CCCC(N3)C(=O)OCC(C)(C)C2)C1 ? 75
